Source: patent US6403638B1

target_or_system: RXRβ (Homo sapiens, UniProt P28702)
Construct: expressed in transfected cells
protocol: RXR receptor transactivation assay
Assay type: cell-based
condition_parameters: read-out: % Eff RXR β transactivation
For each of the molecules below, state its Emax.
Answer with a number only, understood to be in %.

Query (molecule): `CC(/C=C/[C@@H]1C[C@]1(C)c1ccc2c(c1)OC(C)(C)C=C2C(C)(C)C)=C\C(=O)O` ; field requested: Emax 107

CCC1(c2cc(C(C)C)cc(C(C)C)c2)CC1/C=C/C(C)=C/C(=O)O (single isomer, unassigned; (+)) , same question. 152

`CC(/C=C/[C@@H]1C[C@]1(C)c1ccc2c(c1)C(C(C)C)=CCC2(C)C)=C\C(=O)O` , same question. 109

`CC(/C=C/[C@@H]1C[C@]1(C)c1ccc2c(c1)C(C(C)(C)C)=CCC2(C)C)=C\C(=O)O` , same question. 95

###

target_or_system: RXRβ (Homo sapiens)
Construct: expressed in transfected cells
Sequence (P28702 1-533): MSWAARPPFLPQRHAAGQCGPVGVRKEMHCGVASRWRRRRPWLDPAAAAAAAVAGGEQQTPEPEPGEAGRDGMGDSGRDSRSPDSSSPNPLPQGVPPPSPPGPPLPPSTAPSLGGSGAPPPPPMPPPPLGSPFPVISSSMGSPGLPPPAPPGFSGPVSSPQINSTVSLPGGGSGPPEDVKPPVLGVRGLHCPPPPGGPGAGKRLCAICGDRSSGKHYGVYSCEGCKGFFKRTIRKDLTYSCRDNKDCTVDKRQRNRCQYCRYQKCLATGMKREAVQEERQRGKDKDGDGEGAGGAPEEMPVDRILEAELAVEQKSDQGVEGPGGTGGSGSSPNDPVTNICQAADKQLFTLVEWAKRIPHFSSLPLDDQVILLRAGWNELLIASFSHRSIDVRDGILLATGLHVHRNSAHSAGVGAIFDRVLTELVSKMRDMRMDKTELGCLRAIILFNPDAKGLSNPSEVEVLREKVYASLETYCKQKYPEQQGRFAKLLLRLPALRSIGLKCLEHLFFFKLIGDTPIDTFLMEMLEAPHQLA
protocol: RXR receptor transactivation assay
Type: cell-based
condition_parameters: read-out: % Eff RXR β transactivation
Source text: A holoreceptor transactivation assay and a ligand binding assay which measure the antagonist/agonist like activity of the compounds of the invention, or their ability to bind to the several retinoid receptor subtypes, respectively, are described in published PCT Application No. WO WO93/11755 (particularly on pages 30-33 and 37-41) published on Jun. 24, 1993, the specification of which is also incorporated herein by reference. […]
measurement_type: Emax
Please report the result as a number followed by the unit.

Query (molecule): CCCC1(c2ccc3c(c2)C(C(C)C)=CCC3(C)C)CC1/C=C/C(C)=C/C(=O)O (single isomer, unassigned; (+)) ; field requested: Emax 98%

CC1=CC(C)(C)Oc2cc(C3(C)CC3/C=C/C(C)=C/C(=O)O)ccc21 (stereo not shown) , same question. 111%

CCCC1(c2cc(C(C)(C)C)cc(C(C)(C)C)c2)CC1/C=C/C(C)=C/C(=O)O (single isomer, unassigned; (+)) , same question. 80%

`CC(/C=C/[C@@H]1C[C@]1(C)c1ccc2c(c1)OC(C)(C)C=C2C(C)C)=C\C(=O)O` , same question. 107%

`CCCCC1=CC(C)(C)Oc2cc([C@@]3(C)C[C@H]3/C=C/C(C)=C/C(=O)O)ccc21` , same question. 99%

`CC(/C=C/[C@@H]1C[C@]1(C)c1cc(C(C)(C)C)cc(C(C)(C)C)c1)=C\C(=O)O` , same question. 85%

CCCC1(c2ccc3c(c2)C(C(C)(C)C)=CCC3(C)C)CC1/C=C/C(C)=C/C(=O)O (single isomer, unassigned; (+)) , same question. 88%

###

target_or_system: RXRα (Homo sapiens, UniProt P19793)
Sequence (P19793 1-462): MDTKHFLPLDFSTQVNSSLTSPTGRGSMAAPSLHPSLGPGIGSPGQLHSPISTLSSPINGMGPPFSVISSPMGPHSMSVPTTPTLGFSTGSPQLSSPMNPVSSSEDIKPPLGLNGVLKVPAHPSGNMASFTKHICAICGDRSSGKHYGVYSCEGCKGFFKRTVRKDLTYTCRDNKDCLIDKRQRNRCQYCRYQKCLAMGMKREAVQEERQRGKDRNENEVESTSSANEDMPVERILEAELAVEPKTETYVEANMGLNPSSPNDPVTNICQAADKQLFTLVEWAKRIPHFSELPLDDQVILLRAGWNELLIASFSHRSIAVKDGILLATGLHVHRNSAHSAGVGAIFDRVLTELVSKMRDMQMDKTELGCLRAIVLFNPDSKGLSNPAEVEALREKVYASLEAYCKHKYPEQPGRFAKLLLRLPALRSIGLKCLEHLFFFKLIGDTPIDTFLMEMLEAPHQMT
For each of the compounds below, state its pKd.
Quick note: pKd values are minus log10 of concentrations in mol/L.

Query (compound): `CC(/C=C/[C@@H]1C[C@]1(C)c1ccc2c(c1)OC(C)(C)C=C2C(C)(C)C)=C\C(=O)O` ; field requested: pKd 9.77

`CC(/C=C/[C@@H]1C[C@]1(C)c1cc(C(C)(C)C)cc(C(C)(C)C)c1)=C\C(=O)O` , same question. 9.22

`CC(/C=C/[C@@H]1C[C@]1(C)c1ccc2c(c1)C(C(C)C)=CCC2(C)C)=C\C(=O)O` , same question. 9.15

`CC(/C=C/[C@@H]1C[C@]1(C)c1ccc2c(c1)C(C(C)(C)C)=CCC2(C)C)=C\C(=O)O` , same question. 11.00

CC1=CC(C)(C)Oc2cc(C3(C)CC3/C=C/C(C)=C/C(=O)O)ccc21 (centres unmarked) , same question. 9.68

###

target_or_system: RXRγ (Homo sapiens)
protocol: RXR receptor transactivation assay
condition_parameters: read-out: EC50 RXR γ transactivation
measurement_type: pEC50
Quick note: pEC50 values are minus log10 of concentrations in mol/L.

Query (compound): CCCC1(c2ccc3c(c2)C(C(C)(C)C)=CCC3(C)C)CC1/C=C/C(C)=C/C(=O)O (single isomer, unassigned; (+)) ; field requested: pEC50 9.10

`CC(/C=C/[C@@H]1C[C@]1(C)c1ccc2c(c1)C(C(C)C)=CCC2(C)C)=C\C(=O)O` , same question. 10.00

CCCC1(c2cc(C(C)(C)C)cc(C(C)(C)C)c2)CC1/C=C/C(C)=C/C(=O)O (single isomer, unassigned; (+)) , same question. 8.89

###

target_or_system: RXRα (Homo sapiens, UniProt P19793)
Construct: expressed in transfected cells
protocol: RXR receptor transactivation assay
Format: cell-based
condition_parameters: read-out: EC50 RXR α transactivation
For each of the compounds below, state its pEC50.
Quick note: pEC50 values are minus log10 of concentrations in mol/L.

Query (compound): `CCCCC1=CC(C)(C)Oc2cc([C@@]3(C)C[C@H]3/C=C/C(C)=C/C(=O)O)ccc21` ; field requested: pEC50 10.00

`CC(/C=C/[C@@H]1C[C@]1(C)c1ccc2c(c1)C(C(C)(C)C)=CCC2(C)C)=C\C(=O)O` , same question. 10.00

`CC(/C=C/[C@@H]1C[C@]1(C)c1ccc2c(c1)OC(C)(C)C=C2C(C)C)=C\C(=O)O` , same question. 10.00

CCCC1(c2ccc3c(c2)C(C(C)C)=CCC3(C)C)CC1/C=C/C(C)=C/C(=O)O (single isomer, unassigned; (+)) , same question. 10.30

`CC(/C=C/[C@@H]1C[C@]1(C)c1cc(C(C)(C)C)cc(C(C)(C)C)c1)=C\C(=O)O` , same question. 9.00

CCCC1(c2ccc3c(c2)C(C(C)(C)C)=CCC3(C)C)CC1/C=C/C(C)=C/C(=O)O (single isomer, unassigned; (+)) , same question. 9.52

###

target_or_system: RXRγ (Homo sapiens, UniProt P48443)
Sequence (P48443 1-463): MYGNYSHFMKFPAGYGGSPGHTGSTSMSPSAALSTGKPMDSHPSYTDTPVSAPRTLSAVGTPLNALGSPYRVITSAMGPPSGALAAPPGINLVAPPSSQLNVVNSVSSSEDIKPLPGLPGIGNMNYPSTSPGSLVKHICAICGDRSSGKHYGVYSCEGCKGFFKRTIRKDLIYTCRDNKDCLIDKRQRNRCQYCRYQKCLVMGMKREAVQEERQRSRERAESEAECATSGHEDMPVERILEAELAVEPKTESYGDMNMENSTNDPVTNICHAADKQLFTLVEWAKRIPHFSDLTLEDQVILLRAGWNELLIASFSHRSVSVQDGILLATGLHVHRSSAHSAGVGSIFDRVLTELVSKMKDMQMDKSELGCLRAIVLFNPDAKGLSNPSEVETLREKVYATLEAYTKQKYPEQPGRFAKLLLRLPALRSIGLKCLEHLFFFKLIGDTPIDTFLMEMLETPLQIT
protocol: RXR receptor transactivation assay
condition_parameters: read-out: EC50 RXR γ transactivation
measurement_type: EC50 (nM)
Answer with a number only, understood to be in nM.

Request body: readout EC50, system RXRγ (Homo sapiens, UniProt P48443), query CC(/C=C/[C@@H]1C[C@]1(C)c1ccc2c(c1)OC(C)(C)C=C2C(C)C)=C\C(=O)O [Compound 87] . Return the value. 0.1

CC(/C=C/[C@@H]1C[C@]1(C)c1ccc2c(c1)OC(C)(C)C=C2C(C)(C)C)=C\C(=O)O [Compound 88] , same question. 0.1

CC(/C=C/[C@@H]1C[C@]1(C)c1ccc2c(c1)C(C(C)(C)C)=CCC2(C)C)=C\C(=O)O [Compound 57] , same question. 0.1

CCCC1(c2ccc3c(c2)C(C(C)C)=CCC3(C)C)CC1/C=C/C(C)=C/C(=O)O (single isomer, unassigned; (+)) [Compound 34] , same question. 0.1

CC1=CC(C)(C)Oc2cc(C3(C)CC3/C=C/C(C)=C/C(=O)O)ccc21 (stereo not shown) [Compound 28] , same question. 0.14

CCCCC1=CC(C)(C)Oc2cc([C@@]3(C)C[C@H]3/C=C/C(C)=C/C(=O)O)ccc21 [Compound 89] , same question. 0.1

CC(/C=C/[C@@H]1C[C@]1(C)c1cc(C(C)(C)C)cc(C(C)(C)C)c1)=C\C(=O)O [Compound 96] , same question. 2
